Test: Haemolytic assay
Type: cell-based, Human
Settings: human, human erythrocytes (suspension in PBS); 128 µM; read-out: Haemolysis (%)
Description: Haemolytic activity was evaluated as described previously by Ishnava and Shah with a slight modification. Human erythrocytes from healthy individuals were collected in vacuum tubes containing EDTA as anti-coagulant. The erythrocytes were harvested by centrifugation for 10 m at 2500 rpm at 20 °C, and washed three times in PBS. […] From the supernatant fluid, 150 µl was transferred to a flat-bottomed microtiter plate, and the absorbance was measured spectrophotometrically at 540 nm. […]
Observed Property: hemolysis at 1 h, 128 µM (%)
Write the value in % as a bare number.

// field: hemolysis at 1 h, 128 µM; key: C[C@@H]1[C@H](O)[C@@H](C)/C=C/C=C/C=C/C=C/C=C/C=C/C=C/[C@H](O[C@@H]2O[C@H](C)[C@@H](O)[C@H](N)[C@@H]2O)C[C@@H]2O[C@](O)(C[C@@H](O)C[C@@H](O)[C@H](O)CC[C@@H](O)C[C@@H](O)CC(=O)O[C@H]1C)C[C@H](O)[C@H]2C(=O)O ; value = 100

----------
Test: Haemolytic assay
Format: cell-based, Human
Settings: human, human erythrocytes (suspension in PBS); 4 µM; read-out: Haemolysis (%)
Observed Property: hemolysis at 1 h, 4 µM (%)
Write the value in % as a bare number.

// field: hemolysis at 1 h, 4 µM; key: C[C@@H]1[C@H](O)[C@@H](C)/C=C/C=C/C=C/C=C/C=C/C=C/C=C/[C@H](O[C@@H]2O[C@H](C)[C@@H](O)[C@H](N)[C@@H]2O)C[C@@H]2O[C@](O)(C[C@@H](O)C[C@@H](O)[C@H](O)CC[C@@H](O)C[C@@H](O)CC(=O)O[C@H]1C)C[C@H](O)[C@H]2C(=O)O [AMP, amphotericin B] ; value = 2.01

----------
Assay: Haemolytic assay
Assay type: cell-based, Human
Conditions: human, human erythrocytes (suspension in PBS); 256 µM; read-out: Haemolysis (%)
Observed Property: hemolysis at 1 h, 256 µM (%)
Write the value in % as a bare number.

// field: hemolysis at 1 h, 256 µM; key: C[C@@H]1[C@H](O)[C@@H](C)/C=C/C=C/C=C/C=C/C=C/C=C/C=C/[C@H](O[C@@H]2O[C@H](C)[C@@H](O)[C@H](N)[C@@H]2O)C[C@@H]2O[C@](O)(C[C@@H](O)C[C@@H](O)[C@H](O)CC[C@@H](O)C[C@@H](O)CC(=O)O[C@H]1C)C[C@H](O)[C@H]2C(=O)O ; value = 100

----------
Assay: Haemolytic assay
Type: cell-based, Human
Details: human, human erythrocytes (suspension in PBS); 2 µM; read-out: Haemolysis (%)
Observed Property: hemolysis at 1 h, 2 µM (%)
Write the value in % as a bare number.

// field: hemolysis at 1 h, 2 µM; key: C[C@@H]1[C@H](O)[C@@H](C)/C=C/C=C/C=C/C=C/C=C/C=C/C=C/[C@H](O[C@@H]2O[C@H](C)[C@@H](O)[C@H](N)[C@@H]2O)C[C@@H]2O[C@](O)(C[C@@H](O)C[C@@H](O)[C@H](O)CC[C@@H](O)C[C@@H](O)CC(=O)O[C@H]1C)C[C@H](O)[C@H]2C(=O)O ; value = 1.18

----------
Test: Haemolytic assay
Type: cell-based, Human
Details: human, human erythrocytes (suspension in PBS); 64 µM; read-out: Haemolysis (%)
Observed Property: hemolysis at 1 h, 64 µM
Give your result as the value with the unit written after it.

// field: hemolysis at 1 h, 64 µM; key: C[C@@H]1[C@H](O)[C@@H](C)/C=C/C=C/C=C/C=C/C=C/C=C/C=C/[C@H](O[C@@H]2O[C@H](C)[C@@H](O)[C@H](N)[C@@H]2O)C[C@@H]2O[C@](O)(C[C@@H](O)C[C@@H](O)[C@H](O)CC[C@@H](O)C[C@@H](O)CC(=O)O[C@H]1C)C[C@H](O)[C@H]2C(=O)O [AMP, amphotericin B] ; value = 75.7%
